Cited source: patent US5294701A

Tested on: IgR-37 melanoma cells (Z-cells)
Assay: Inhibition of growth of human tumour cell line IgR-37 in vitro (PIT method of van Lambalgen and Lelieveld)
Format: cell-based
Conditions: IgR-37 melanoma cells, read-out: ID50 values in ng/ml, IgR-37 (amount which inhibits 50% of the cell growth)
ASSAY ENDPOINT: IC50 (ng/mL)

Answered examples (2):
COMPOUND	ASSAY ENDPOINT	MEASUREMENT UNITS	OBSERVED
CC(=O)[C@]1(O)CC2=C(C(=O)c3c(O)ccc(O)c3C2=O)[C@@H](O[C@H]2C[C@H](N)[C@H](O)[C@H](C)O2)C1	IC50	ng/mL	2440
CC(=O)C1(O)Cc2c(O)c3c(c(O)c2C(O[C@H]2C[C@H](N)[C@H](O)[C@H](C)O2)C1)C(=O)c1ncc(C)cc1C3=O (stereo partly drawn)	IC50	ng/mL	459

(P) CC(=O)[C@@]1(O)Cc2c(O)c3c(c(O)c2[C@H](O[C@H]2C[C@H](N)[C@H](O)[C@H](C)O2)C1)C(=O)c1ccccc1C3=O [HRM09, α-7.9-bis-epi-4-demethoxydaunomycin, reference compound]
(Q) CC(=O)C1(O)Cc2c(O)c3c(c(O)c2C(O[C@H]2C[C@H](N)[C@H](O)[C@H](C)O2)C1)C(=O)c1cc(C)cnc1C3=O (stereo partly drawn)
Exam item: Field: lower recorded IC50 (choose P or Q ) # respond with the chosen item's label
Marked response: Q
(Q: 77 ng/mL, P: 618 ng/mL)

###

Test system: MCF-7 mammary carcinoma cells (M-cells)
Assay: Inhibition of growth of human tumour cell line MCF-7 in vitro (PIT method of van Lambalgen and Lelieveld)
Format: cell-based
Details: MCF7, MCF-7 mammary carcinoma cells, read-out: ID50 values in ng/ml, MCF-7 (amount which inhibits 50% of the cell growth)
ASSAY ENDPOINT: IC50 (ng/mL)

MOLECULE	IC50 (ng/mL)
C#C[C@]1(O)Cc2c(O)c3c(c(O)c2[C@@H](O[C@H]2C[C@H](N)[C@H](O)[C@H](C)O2)C1)C(=O)c1c(OC)cccc1C3=O	39

(P) CC(=O)[C@@]1(O)Cc2c(O)c3c(c(O)c2[C@H](O[C@H]2C[C@H](N)[C@H](O)[C@H](C)O2)C1)C(=O)c1ccccc1C3=O [HRM09, α-7.9-bis-epi-4-demethoxydaunomycin, reference compound]
(Q) C#C[C@]1(O)Cc2c(O)c3c(c(O)c2[C@@H](O[C@H]2C[C@H](N)[C@H](O)[C@H](C)O2)C1)C(=O)c1ccccc1C3=O
Exam item: Between the entries labelled P and Q , which has a larger IC50 value on record? # respond with the chosen item's label
Marked response: P

###

Collected IC50 values appear next to each entry.
System: A 204 rhabdomyosarcoma (A-cells)
Assay: Inhibition of growth of human tumour cell line A 204 in vitro (PIT method of van Lambalgen and Lelieveld)
Type: cell-based
Details: A204, read-out: ID50 values in ng/ml, A204 (amount which inhibits 50% of the cell growth)
Note: unit ng/mL is implicit; provide only the numeric part.

Exam item: Return IC50 (reported value) for this compound: C[C@@H]1O[C@@H](O[C@H]2C[C@](O)(C#C[Si](C)(C)C)Cc3c(O)c4c(c(O)c32)C(=O)c2ccccc2C4=O)C[C@H](NC(=O)C(F)(F)F)[C@@H]1O [HRM03]
Marked response: 97

###

Test system: MCF-7 mammary carcinoma cells (M-cells)
Assay: Inhibition of growth of human tumour cell line MCF-7 in vitro (PIT method of van Lambalgen and Lelieveld)
Type: cell-based
Details: MCF7, MCF-7 mammary carcinoma cells, read-out: ID50 values in ng/ml, MCF-7 (amount which inhibits 50% of the cell growth)
ASSAY ENDPOINT: IC50 (ng/mL)

Answered examples (4):
>>> df
                                   compound  observed
0  CC(=O)[C@]1(O)CC2=C(C(=O)c3c(O)ccc(O)c3C2=O)[C@@H](O[C@H]2C[C@H](N)[C@H](O)[C@H](C)O2)C1       542
1  CC(=O)C1(O)Cc2c(O)c3c(c(O)c2C(O[C@H]2C[C@H](N)[C@H](O)[C@H](C)O2)C1)C(=O)c1ncc(C)cc1C3=O (stereo partly drawn)       334
2  C#C[C@]1(O)CC2=C(C(=O)c3c(O)ccc(O)c3C2=O)[C@@H](O[C@H]2C[C@H](N)[C@H](O)[C@H](C)O2)C1       338
3  C#C[C@]1(O)Cc2c(O)c3c(c(O)c2[C@@H](O[C@H]2C[C@H](NC(=O)C(F)(F)F)[C@H](O)[C@H](C)O2)C1)C(=O)c1ccccc1C3=O        14

(I) CC(=O)C1(O)Cc2c(O)c3c(c(O)c2C(O[C@H]2C[C@H](N)[C@H](O)[C@H](C)O2)C1)C(=O)c1cc(C)cnc1C3=O (stereo partly drawn)
(II) C#C[C@@]1(O)Cc2c(O)c3c(c(O)c2[C@H](O[C@H]2C[C@H](N)[C@H](O)[C@H](C)O2)C1)C(=O)c1ccccc1C3=O
Exam item: Between the entries labelled I and II , which has a larger IC50 value on record? # respond with the chosen item's label
Marked response: II
(II: 420 ng/mL, I: 67 ng/mL)

###

Tested on: IgR-37 melanoma cells (Z-cells)
Assay: Inhibition of growth of human tumour cell line IgR-37 in vitro (PIT method of van Lambalgen and Lelieveld)
Format: cell-based
Settings: IgR-37 melanoma cells, read-out: ID50 values in ng/ml, IgR-37 (amount which inhibits 50% of the cell growth)
ASSAY ENDPOINT: IC50 (ng/mL)

Answered examples (2):
>>> print(df.to_string())
                                        smi            target_or_test_system  assay_endpoint  observed
0  C#C[C@]1(O)CC2=C(C(=O)c3c(O)ccc(O)c3C2=O)[C@@H](O[C@H]2C[C@H](N)[C@H](O)[C@H](C)O2)C1  IgR-37 melanoma cells (Z-cells)            IC50      1940
1  C#C[C@]1(O)Cc2c(O)c3c(c(O)c2[C@@H](O[C@H]2C[C@H](N)[C@H](O)[C@H](C)O2)C1)C(=O)c1c(OC)cccc1C3=O  IgR-37 melanoma cells (Z-cells)            IC50        63

(1) C#C[C@@]1(O)Cc2c(O)c3c(c(O)c2[C@H](O[C@H]2C[C@H](N)[C@H](O)[C@H](C)O2)C1)C(=O)c1ccccc1C3=O
(2) C#C[C@]1(O)Cc2c(O)c3c(c(O)c2[C@@H](O[C@H]2C[C@H](N)[C@H](O)[C@H](C)O2)C1)C(=O)c1ccccc1C3=O
(3) C#C[C@]1(O)Cc2c(O)c3c(c(O)c2[C@@H](O[C@H]2C[C@H](NC(=O)C(F)(F)F)[C@H](O)[C@H](C)O2)C1)C(=O)c1ccccc1C3=O
Exam item: Falling order of IC50, please. Put the labels in the order asked and list them.
Marked response: 1, 3, 2

###

Tested on: A 204 rhabdomyosarcoma (A-cells)
Experiment: Inhibition of growth of human tumour cell line A 204 in vitro (PIT method of van Lambalgen and Lelieveld)
Format: cell-based
Conditions: A204, read-out: ID50 values in ng/ml, A204 (amount which inhibits 50% of the cell growth)
Excerpt: A number of compounds were examined with the following human tumour cell lines according to the method of R. van Lambalgen and P. Lelieveld, "The PIT method: and automated in vitro technique for drug toxicity testing", Invest. New Drugs 5, 161-165, 1987. A 204 rhabdomyosarcoma (A-cells) […] The ID50 values of the above compounds, expressed in ng/ml, where determined according to the abovementioned method of van Lambalgen and Lelieveld. […]
Structures can show the parent of a compound that is named as a salt.
Collected IC50 values appear next to each entry.
Note: unit ng/mL is implicit; provide only the numeric part.

COMPOUND	OBSERVED
COc1cc([C@@H]2c3cc4c(cc3[C@@H](O[C@@H]3O[C@@H]5CO[C@@H](C)O[C@H]5[C@H](O)[C@H]3O)[C@H]3COC(=O)[C@H]23)OCO4)cc(OC)c1O [Etoposide, reference compound]	91
COc1cccc2c1C(=O)c1c(O)c3c(c(O)c1C2=O)C[C@@](O)(C(=O)CO)C[C@@H]3O[C@H]1C[C@H](N)[C@H](O)[C@H](C)O1 [Adramycin.HCl, Adriamycin, reference compound]	4

Exam item: Return IC50 (reported value) for this compound: COc1cccc2c1C(=O)c1c(O)c3c(c(O)c1C2=O)C[C@@](O)(C(C)=O)C[C@@H]3O[C@H]1C[C@H](N)[C@H](O)[C@H](C)O1 [Daunomycin.HCl, Daunomycin, reference compound]
Marked response: 1
